- study-system: T1, Muscarinic acetylcholine receptor M4 (Homo sapiens, UniProt P08173)
- T1 chain: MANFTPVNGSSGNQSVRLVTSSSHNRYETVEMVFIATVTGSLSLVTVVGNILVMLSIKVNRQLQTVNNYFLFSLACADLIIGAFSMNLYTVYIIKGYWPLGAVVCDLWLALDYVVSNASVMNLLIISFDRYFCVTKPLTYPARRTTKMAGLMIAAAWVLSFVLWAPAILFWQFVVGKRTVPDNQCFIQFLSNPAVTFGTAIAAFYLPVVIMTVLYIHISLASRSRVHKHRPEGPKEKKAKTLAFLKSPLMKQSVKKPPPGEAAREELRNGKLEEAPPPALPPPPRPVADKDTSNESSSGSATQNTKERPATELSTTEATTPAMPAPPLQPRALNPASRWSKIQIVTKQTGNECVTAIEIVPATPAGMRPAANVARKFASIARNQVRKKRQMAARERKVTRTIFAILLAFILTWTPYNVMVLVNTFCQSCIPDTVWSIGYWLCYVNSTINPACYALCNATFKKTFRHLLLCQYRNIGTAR
- assay-summary: [3H]-NMS equilibrium inhibition binding
readout-label: Ki (µM)
Write it as a number; the unit µM goes unstated.

Muscarinic toxin 7 (MT7) (protein) LTCVKSNSIWFPTSEDCPDGQNLCFKRWQYISPRMYDFTRGCAATCPKAEYRDVINCCGTDKCNK    13

Turning to the following binder.
Fill in the blank: the reported Ki of Muscarinic toxin 1 (MT1) (protein) LTCVTSKSIFGITTENCPDGQNLCFKKWYYIVPRYSDITWGCAATCPKPTNVRETIRCCETDKCNE is ____.
0.31
